- TEST_METHOD_NOTES: yeast display, Sf9 membrane polyspecificity reagent, FACS + sequencing; frameworks hold sequencing errors
MEASURED_ENDPOINT: polyreactivity (PSR sort gate)

Examples with their reported polyreactivity (PSR sort gate) follow.
[[record]]
residue_codes = "QVQLVESGGGLVQAGGSLRLSCAASGRIFPYYVMGWYRQAPGKERELVAAISRSGSSTYYADSVKGRFTISRDNAKNTVYLQMNSLKPEDTAVYYCAADYNWSPYYTRGDYWGQGTQVTVSS"
meas_value = "high polyreactivity"

[[record]]
residue_codes = "QVQLVESGGGLVQAGGSLRLSCAASGLIIWYYAMGWYRQAPGKERELVAAISRSGGRTYYADSVKGRFTISRDNAKNTVYLQMNSLKPEDTAVNYCNADVYRGYDYWGQGTQVTVSS"
meas_value = "high polyreactivity"

[[record]]
residue_codes = "QVQLVESGGGLVQAGGSLRLCCAASGIIFDGYAMGWYRQAPGKERELVAGITIGDITYYADSVKGRFTISRDNAKNTVYLQMTSLKPEDTAVYYCAADSYYYQTAYDYWGQGTQVTVSS"
meas_value = "low polyreactivity"

[[record]]
residue_codes = "QVQLVESGGGLVQAGGSLRLSCAASGRTFVTNAMGWYRQAPGKETELVAAISGTGGSTYYADSVKGRFTISRDNAKNTVYLQMNSLKPEDTAVYYCAAQKWRRGRYRDTAGPLFAYDYWGQGTQVTVSS"
meas_value = "low polyreactivity"


Field: next sequence
Q: Which polyreactivity (PSR sort gate) is listed for QVQLVESGGGLVQAGGSLRLSCAASGFTLYYYTMGWYRQAPGKERELVASITGGGTTNYADSVKGRFTISRDNAKNTVYLQMNSLKPEDTAVYYCAKGYGASNDPGYVRKRYGYWGQGTQVTVSS ?
A: low polyreactivity

From: the nanobody polyreactivity screen of Harvey et al. (2022)
